- targetOfAssay: HIV-1 protease (Human immunodeficiency virus type 1 group M subtype B)
- testProtocol: biochemical
- settings: Table II; enzyme HIV-1; DOSE 3.300 (unit not given)

compound	PROTEASE % INHIB.
CCC(C1=C(O)CC(CCc2ccccc2)(CCc2ccccc2)OC1=O)c1cccc(NS(=O)(=O)c2cn(C)cn2)c1 (stereo not shown)	85.63%
CCC(C1=C(O)CC(CCc2ccc(F)cc2)(CCc2ccc(F)cc2)OC1=O)c1cccc(NS(=O)(=O)c2ccc(C(N)=O)cn2)c1 (stereo not shown)	93.69%
Cn1cnc(S(=O)(=O)Nc2cccc(C(C3=C(O)CC(CCc4ccccc4)(CCc4ccccc4)OC3=O)C(C)(C)C)c2)c1 (stereo not shown)	86.43%
CCC(C1=C(O)C2CCCCC2OC1=O)c1cccc(NS(=O)(=O)c2ccc(C#N)cn2)c1 (stereo not shown)	109.33%
CCC[C@]1(CCc2ccc(F)cc2)CC(O)=C([C@H](c2cccc(NS(=O)(=O)c3cn(C)cn3)c2)C(C)(C)C)C(=O)O1 (single isomer, unassigned)	74.99%
CCC(C1=C(O)C2CCCCCC2OC1=O)c1cccc(NS(=O)(=O)c2ccc(C#N)cn2)c1 (stereo not shown)	99.56%
CCCC1(CCC)CC(O)=C(C(CC)c2cccc(NS(=O)(=O)c3ccc(C(N)=O)cn3)c2)C(=O)O1 (stereo not shown)	102.47%
CCCC1(CCC)CC(O)=C(C(c2cccc(NS(=O)(=O)c3ccc(C(F)(F)F)cn3)c2)C(C)(C)C)C(=O)O1 (single isomer, unassigned) [Example 285]	109.33%
Cn1cnc(S(=O)(=O)Nc2cccc(C(C3=C(O)CC(CCc4ccccc4)(CCC(F)(F)F)OC3=O)C(C)(C)C)c2)c1 (single isomer, unassigned) [Example 270]	96.62%
CCCC1(CCc2ccccc2)CC(O)=C(C(c2cccc(NS(=O)(=O)c3cn(C)cn3)c2)C(C)(C)C)C(=O)O1 (single isomer, unassigned)	93.34%
CC(C)(C)C(C1=C(O)CC(CCc2ccccc2)(CCc2ccccc2)OC1=O)c1cccc(NS(=O)(=O)c2ccc(C#N)cn2)c1 (stereo not shown)	83.08%
CCCC1(CCC)CC(O)=C(C(c2cccc(NS(=O)(=O)c3cn(C)cn3)c2)C(C)(C)C)C(=O)O1 (single isomer, unassigned) [Example 318]	88.73%
CCCC1(CCC)CC(O)=C(C(c2cccc(NS(=O)(=O)c3ccc(C(F)(F)F)cn3)c2)C(C)(C)C)C(=O)O1 (single isomer, unassigned) [Example 286]	93.11%
CCC[C@@]1(CCc2ccc(F)cc2)CC(O)=C([C@@H](c2cccc(NS(=O)(=O)c3ccc(N)cn3)c2)C(C)(C)C)C(=O)O1 (single isomer, unassigned) [Example 316]	95.46%
CCC[C@@]1(CCc2ccccc2)CC(O)=C([C@@H](c2cccc(NS(=O)(=O)c3cn(C)cn3)c2)C(C)(C)C)C(=O)O1 (single isomer, unassigned) [Example 310]	100.22%
Cn1cnc(S(=O)(=O)Nc2cccc(C(C3=C(O)CC(CCc4ccccc4)(CCC(F)(F)F)OC3=O)C(C)(C)C)c2)c1 (single isomer, unassigned) [Example 276]	90.01%
CCCC1(CCC)CC(O)=C(C(CC)c2cccc(NS(=O)(=O)c3ccc(C(F)(F)F)cn3)c2)C(=O)O1 (stereo not shown)	86.69%
CCCC1(CCC)CC(O)=C(C(c2cccc(NS(=O)(=O)c3cn(C)cn3)c2)C(C)(C)C)C(=O)O1 (single isomer, unassigned) [Example 319]	75.86%
CCCC1(CCc2ccc(F)cc2)CC(O)=C(C(c2cccc(NS(=O)(=O)c3ccc(C#N)cc3)c2)C(C)(C)C)C(=O)O1 (stereo not shown)	96.77%
